targetUnderTest: Ras-GAP interaction (Bos taurus)
Construct: made in house; host or cells: GAP: E. coli JM109 (plasmid pYO); Ha-Ras: E. coli RRllaci^q (plasmid pRas[Gly12 Ala59])
Sequence (P09851 1-1044): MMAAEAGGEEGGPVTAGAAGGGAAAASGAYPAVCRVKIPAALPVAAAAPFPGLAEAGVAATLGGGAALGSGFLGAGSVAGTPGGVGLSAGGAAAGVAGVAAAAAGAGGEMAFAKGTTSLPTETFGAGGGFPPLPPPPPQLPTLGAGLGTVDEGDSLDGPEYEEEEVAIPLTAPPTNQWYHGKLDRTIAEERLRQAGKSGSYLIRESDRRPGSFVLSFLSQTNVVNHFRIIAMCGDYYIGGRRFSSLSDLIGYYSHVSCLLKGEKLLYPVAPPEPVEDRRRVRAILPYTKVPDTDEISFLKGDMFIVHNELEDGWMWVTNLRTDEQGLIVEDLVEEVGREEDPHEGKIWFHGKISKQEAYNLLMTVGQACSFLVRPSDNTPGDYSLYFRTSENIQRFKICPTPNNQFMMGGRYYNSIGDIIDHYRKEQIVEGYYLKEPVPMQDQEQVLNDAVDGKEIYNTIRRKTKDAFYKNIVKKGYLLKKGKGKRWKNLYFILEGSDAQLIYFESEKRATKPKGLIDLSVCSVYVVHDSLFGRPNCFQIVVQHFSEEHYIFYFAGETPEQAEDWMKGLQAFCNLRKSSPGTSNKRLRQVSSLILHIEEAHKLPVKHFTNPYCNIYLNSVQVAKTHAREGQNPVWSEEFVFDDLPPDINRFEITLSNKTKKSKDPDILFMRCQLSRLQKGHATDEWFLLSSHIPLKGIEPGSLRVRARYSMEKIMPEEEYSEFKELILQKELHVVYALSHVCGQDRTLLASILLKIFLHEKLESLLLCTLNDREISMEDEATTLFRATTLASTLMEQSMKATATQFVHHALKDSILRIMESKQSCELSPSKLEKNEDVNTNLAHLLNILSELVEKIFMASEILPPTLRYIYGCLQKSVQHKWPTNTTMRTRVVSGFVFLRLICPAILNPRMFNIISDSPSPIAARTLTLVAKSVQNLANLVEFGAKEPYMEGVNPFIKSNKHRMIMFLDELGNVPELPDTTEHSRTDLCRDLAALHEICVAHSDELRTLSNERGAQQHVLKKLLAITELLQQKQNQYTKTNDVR
protocol: Ras-GAP interaction inhibition assay (GAP-stimulated Ras GTPase, charcoal adsorption)
Format: biochemical, bovine
conditionDescription: concentration of peptide required to reduce GAP stimulated Ras-GTP hydrolysis by 50%; 10 fmol GAP, 240 fmol Ha ras p21-GTP, 4 minutes at 24°C
No end group written: not given here.
Binning of IC50 into classes: low bin = under 4 µM, mid bin = from 4 µM up to 50 µM, high bin = 50 µM and over

Some entries whose results are on file:
>  <substance>
LTIQLIQNHFVDE [Ras 19-31]

>  <targetUnderTest>
Ras-GAP interaction (Bos taurus)

>  <qualitativeLabel>
mid bin

$$$$
>  <substance>
LTIQIQNHFVDE [Ras 19-31(1)]

>  <targetUnderTest>
Ras-GAP interaction (Bos taurus)

>  <qualitativeLabel>
mid bin

$$$$
>  <substance>
SALTIQLIQNHFVDEYDPTIE [Ras 17-37]

>  <targetUnderTest>
Ras-GAP interaction (Bos taurus)

>  <qualitativeLabel>
low bin

$$$$
>  <substance>
TIQLIQNHFVDEY [Ras 20-32]

>  <targetUnderTest>
Ras-GAP interaction (Bos taurus)

>  <qualitativeLabel>
mid bin

$$$$
>  <substance>
LTIQLIQNHFVDEYD [Ras 19-33]

>  <targetUnderTest>
Ras-GAP interaction (Bos taurus)

>  <qualitativeLabel>
low bin

$$$$

Task item: Exercise: read the entry NHFVDEY [Ras 26-32] and state which class it falls under.
Reply: high bin

Task item: Bin this entry: LTIQLIQNHFVDEY [Ras 19-32]
Reply: low bin

Task item: Could you tell me which band IQLIQNHFVDEY [Ras 21-32] belongs to?
Reply: high bin
